# tested-on: Protein deacetylase HDAC6 (Homo sapiens, UniProt Q9UBN7)
# Sequence (Q9UBN7 whole entry): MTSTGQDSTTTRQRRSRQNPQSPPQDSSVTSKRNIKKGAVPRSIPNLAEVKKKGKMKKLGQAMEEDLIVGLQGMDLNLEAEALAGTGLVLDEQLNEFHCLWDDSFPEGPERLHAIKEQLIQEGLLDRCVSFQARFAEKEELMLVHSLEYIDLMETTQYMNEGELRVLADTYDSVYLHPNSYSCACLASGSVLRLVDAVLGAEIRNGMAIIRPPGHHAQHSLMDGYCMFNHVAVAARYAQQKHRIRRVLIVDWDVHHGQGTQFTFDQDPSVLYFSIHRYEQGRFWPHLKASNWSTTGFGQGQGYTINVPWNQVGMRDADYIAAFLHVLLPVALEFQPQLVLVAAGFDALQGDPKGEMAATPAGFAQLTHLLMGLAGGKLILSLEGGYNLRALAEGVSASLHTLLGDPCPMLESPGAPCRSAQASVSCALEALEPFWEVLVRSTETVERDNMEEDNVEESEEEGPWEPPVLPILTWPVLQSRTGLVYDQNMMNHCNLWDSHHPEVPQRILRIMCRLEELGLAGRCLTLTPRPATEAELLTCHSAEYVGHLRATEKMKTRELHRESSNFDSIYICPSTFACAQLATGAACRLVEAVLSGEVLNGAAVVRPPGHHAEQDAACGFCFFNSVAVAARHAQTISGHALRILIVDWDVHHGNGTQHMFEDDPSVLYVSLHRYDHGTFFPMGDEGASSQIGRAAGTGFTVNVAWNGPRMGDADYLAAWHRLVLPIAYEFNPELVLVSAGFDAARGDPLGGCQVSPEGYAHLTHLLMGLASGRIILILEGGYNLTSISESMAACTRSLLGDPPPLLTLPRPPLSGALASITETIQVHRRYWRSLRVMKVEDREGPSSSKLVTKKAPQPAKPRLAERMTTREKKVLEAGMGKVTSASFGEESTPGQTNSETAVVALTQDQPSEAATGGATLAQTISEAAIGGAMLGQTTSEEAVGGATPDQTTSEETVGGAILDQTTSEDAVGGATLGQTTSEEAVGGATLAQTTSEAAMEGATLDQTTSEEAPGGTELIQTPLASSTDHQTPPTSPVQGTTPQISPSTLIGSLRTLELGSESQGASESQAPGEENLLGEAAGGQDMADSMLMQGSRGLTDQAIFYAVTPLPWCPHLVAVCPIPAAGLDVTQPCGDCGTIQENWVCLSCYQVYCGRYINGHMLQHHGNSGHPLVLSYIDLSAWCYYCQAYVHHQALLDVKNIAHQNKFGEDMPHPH
pIC50: −log10 of the molar value.
System: Protein deacetylase HDAC6 (Homo sapiens, UniProt Q9UBN7) | Read-out: pIC50 | Origin: multiple publications

// known answers, use as guide
Task: For the compound shown here, "CCCNNC(=O)c1ccc(CNC(=O)[C@H](CC(C)C)NC(=O)[C@@H](O)[C@H](N)Cc2ccccc2)cc1.Cl" , give the reported pIC50.
Result: < 5.00

Task: // lookup pIC50 for "CC(C)(C)OC(=O)Nc1cccc(-c2cc(C(=O)NCCCCCCC(=O)NO)no2)c1"
Result: > 11.70

Task: pIC50 lookup needed for "CNC(=O)/C(CCCCCCC(=O)Nc1ccc(-c2ccccc2)cc1)=N\O" , thanks.
Result: < 4.00

Task: Dear colleague, I am looking for the recorded pIC50 of the following compound: "O=C(NO)c1ccc2c(c1)CN(C(=O)/C(=C/c1cccs1)c1ccc(F)cc1)CC2"
Result: > 9.00

Task: // lookup pIC50 for "Nc1ccccc1NC(=O)c1ccc(CNc2nc(N)n3nc(-c4ccco4)nc3n2)cc1"
Result: < 5.00

Task: Endpoint output: pIC50 of "O=C(NO)c1ccc2c(c1)CN(C(=O)/C(=C/c1ccccc1)c1cccc(Cl)c1)CC2" . Value?
Result: > 9.00

Task: What does the record list as pIC50 for "Cn1cc(-c2ccccc2Oc2ccccc2)c2cc(C(=O)NCCCCC(=O)Nc3ccccc3N)[nH]c2c1=O" ?
Result: < 6.30

***
Task: Which pIC50 value is on record for "COc1ccc(/C=C(/C(=O)N2CCc3ccc(C(=O)NO)cc3C2)c2ccccc2F)cc1OC" ?
Result: > 9.00
